Data provenance is ChEMBL document CHEMBL3433997.

Target: Hexose transporter 1 (Plasmodium falciparum) (UniProt O97467)
Assay: ST_JUDE_LEISH: Cytotoxicity at 2uM final concentration against transgenic Leishmania Mexicana promastigotes LmPfHT that are glucose transport deficient and complemented with the Plasmodium falciparum hexose transporter. Activity is measured by DNA content using SYBR green in vitro
Type: functional

Compound	inhibition / %
O=C(Nc1ccc(F)cc1)NC1CCN(CCCCCNC(=O)C2CC2c2ccc(Cl)c(Cl)c2)CC1 (centres undefined)	1.54
CCN(CC)CCCC(C)N=c1cc(C=Cc2ccc([N+](=O)[O-])cc2)[nH]c2ccc(OC)cc12 (centres undefined)	5.16
Cc1c(C(=O)C2CC2CN2CCC(N3CCCCC3)CC2)sc2ccccc12 (centres undefined)	-0.31
Cc1nc2c(-n3cc(Cn4ccnc4)c4ccccc43)ncnc2n1-c1ccc(Cl)cc1Cl	0.41
Cc1ccc(F)cc1S(=O)(=O)Nc1cccc(CCN2CCC(N3CCCCC3)CC2)c1	6.1
NCc1cccc(-c2cccc(CNC3CCN(Cc4ccccc4)CC3)c2)c1	5.41
O=C(NCc1ccc(F)cc1)c1ccc(N2CCN(c3ccncc3)CC2)cn1	-0.85
COc1cc2c(cc1OC)C(C(=O)Nc1cc(OC)c(OC)c(OC)c1)C(c1ccc(SC)cc1)N(C)C2=O (centres undefined)	0.98
CN1CCC(N2CCN(Cc3ccc(-c4cccc(-c5nc6cc(F)ccc6[nH]5)c4)cc3)CC2)CC1	2.13

====

Biological target: Solute carrier family 2, facilitated glucose transporter member 1 (Homo sapiens)
Assay: ST_JUDE_LEISH: Cytotoxicity at 2uM final concentration against transgenic Leishmania Mexicana promastigotes LmGLUT1 that are glucose transport deficient and complemented with the human glucose transporter GLUT1. Activity is measured by DNA content using SYBR green in vitro
Assay type: functional
Attribute measured: inhibition (%)

Compound	Result value
CN1CCN(CCCN(Cc2ccc(-c3ccc(CNCCc4ccccc4)cc3)cc2)C(=O)c2cccs2)CC1	2.36
CC(C)CCN1CCC(Oc2ccc(NC(=O)c3ccco3)cc2Cl)CC1	7.85
Nc1ncc(-c2cccc(F)c2)cc1-c1nc2cc(F)ccc2[nH]1	4.17
CN1CCC(C(=O)Nc2cccc(-c3ccc(-c4nc5cc(F)ccc5[nH]4)cc3)c2)CC1	8.64
CCOC(=O)c1c(C)n(-c2ccc(Cl)cc2)c2ccc(OC(=O)C=Cc3ccccc3)cc12	2.75
C=CCOc1cc(Cc2cnc(N)nc2N)cc(OC)c1OC	1.5
COCCOc1ccc(C(F)(F)F)cc1NC(=O)Cc1c(F)cccc1Cl	11.3
CCCCCN1CCCC1CNS(=O)(=O)c1cccc(C(=O)Nc2cccc(C#N)c2)c1 (stereo not given)	2.62
CC1(C)NC(N)=NC(=N)N1OCOc1cc(Cl)c(Cl)cc1Cl	-2.15
CC(C)c1ccc(NC(=O)N2CCc3ccc(OCCN(C(C)C)C(C)C)cc32)c(Br)c1	-3.12
CC[C@H](C)CNC(=O)c1cncc(-c2cccc(CN3CCC(N4CCCC4)CC3)c2)c1	-3.12
CC[C@H]1CN(Cc2ccccc2Br)CC[C@H]1CCCc1ccnc2ccc(O)cc12	3.62
CCN(CC)/C(=N\C(=N)NCCCCCCNC(=N)/N=C(\Nc1ccc(Cl)cc1)N(CC)CC)Nc1ccc(Cl)cc1	0.25
Cc1cc(=NN=Cc2ccc(Cl)cc2)c2cc(C(F)(F)F)ccc2[nH]1	1.05
Nc1ncc(-c2ccc(Cl)c(Cl)c2)c(N)n1	0.86
CCOc1ccc2ccccc2c1C(=O)Nc1cc(C)nn1-c1nc(C)cc(=O)[nH]1	49.6
CCCCCC(C)NC[C@@H](O)[C@H](Cc1ccccc1)NC(=O)c1cc(NCC)cc(N2CCCCS2(=O)=O)c1 (stereo not given in full)	-0.71
OC(CNCCCc1ccccc1)c1cc(OCc2ccccc2)cc(OCc2ccccc2)c1 (stereo not given)	6.81
COc1ccc2c(OC)c(CNCCCCCCNCc3ccc4cc(OC)ccc4c3OC)ccc2c1	106
CC1CCN(C(=O)C(Cc2c[nH]c3ccccc23)NS(=O)(=O)c2ccc(Cl)cc2)CC1 (stereo not given)	0.31

====

Target: Glucose transporter (Leishmania mexicana)
Experiment: ST_JUDE_LEISH: Cytotoxicity at 2uM final concentration against transgenic Leishmania Mexicana promastigotes LmGT2 that are glucose transport deficient and complemented with the L. Mexicana glucose transporter 2. Activity is measured by DNA content using SYBR green in vitro
Format: functional
Attribute measured: inhibition (%)

Molecule	Attribute measured	Unit abbreviation	Result value
O=S(=O)(c1cccc(F)c1)c1ccc(Nc2ncnc3cc(Br)sc23)cc1Cl	inhibition	%	-1.17
Cc1cc(NC(=O)c2ccco2)ccc1OC1CCN(Cc2ccc(C#N)cc2)CC1	inhibition	%	1.11
CC[C@H](C)CNC(=O)c1cncc(-c2ccc(CN3CCC(N4CCCC4)CC3)cc2)c1	inhibition	%	1.05
CN(c1ccc(NC(=O)Nc2cc(C(C)(C)C)on2)cc1)c1ccnc(NCCN2CCOCC2)n1	inhibition	%	5.4
CCCCN(CCCC)CCNC(=O)c1cccc(NC(=O)N2CCc3cc(SC)c(C(F)(F)F)cc32)c1	inhibition	%	2.86
COc1nc2c(CCN3CCC(NCc4ccc5c(n4)NC(=O)CO5)CC3)c(Cl)cnc2cc1F	inhibition	%	7.05
COc1ccc(-c2cccc(NC(=O)c3ccc(Cl)cc3)c2)cc1CN1CCCN(C)CC1	inhibition	%	7.23
O=C(c1cccc(-c2cccc(-c3nc4ccccc4[nH]3)c2)c1)N1CCCCC1CN1CCC(O)C1 (centres undefined)	inhibition	%	0.03
CCn1c(-c2nc(-c3ccnc(N4CCN(C)CC4)c3)cnc2N)nc2cc(S(C)(=O)=O)ccc21	inhibition	%	20.7

====

Collected inhibition values appear next to each entry.
Target: Glucose transporter (Leishmania mexicana)
Test: ST_JUDE_LEISH: Cytotoxicity at 2uM final concentration against transgenic Leishmania Mexicana promastigotes LmGT2 that are glucose transport deficient and complemented with the L. Mexicana glucose transporter 2. Activity is measured by DNA content using SYBR green in vitro
Assay type: functional

Molecule	inhibition [%]
COc1cc(C(=O)N2CCC(CCN3CCC4(CC3)CN(S(C)(=O)=O)c3ccccc34)CC2Cc2ccc(Cl)c(Cl)c2)cc(OC)c1OC (stereo not given)	3.27
CCOC(=O)N1CCN(CCCCCNc2cc(C)nc(NC(=N)Nc3ccc(Cl)cc3)n2)CC1	6.08
COc1ccc2nc(C)cc(N/N=C/C=C/c3ccccc3)c2c1	3.79
COc1ccc(O)c(Cc2cnc3nc(N)nc(N)c3c2C)c1	11.4
C=CCC(C(=O)Nc1ccnc2ccc(OC)cc12)C1CCN(CCCCCCC)CC1 (stereo not given)	0.87
O=C(/C=C/c1ccc(Cl)cc1)NCCCCCN1CCCC(C(=O)Nc2ccc(Cl)cc2)C1 (stereo not given)	3.7
Cc1cccc2nc(-c3ccc(-c4ccc(NC(=O)C5CCN(C)CC5)cc4)cc3)[nH]c12	1.38
CCCN1CCN(CCNC(=O)c2cccc(Nc3nccc(Nc4ccc(Oc5ccccc5)cc4)n3)c2)CC1	1.04
N=C(N)Nc1nc(-c2cccc(NC(=O)Cc3ccccc3)c2)cs1	3.44
COc1ccc2nc(C)cc(Nc3ccc(N4CCN(C)CC4)cc3)c2c1	0.99
Nc1nc(N)c2c(ccc3c2ccn3Cc2cccc(F)c2)n1	99.8
CC1CCN(C(=O)CSc2nc(-c3ccc(C(C)C)cc3)no2)CC1	6.14
CCN(CC)CC(O)CNc1c2ccc([N+](=O)[O-])cc2nc2cc(OC)c(OC)cc12 (stereo not given)	42
Cc1cnccc1/C=C/c1cccc(OCCCN2CCc3ccc(S(C)(=O)=O)cc3CC2)c1	2.19
COc1ccc(CN(C)Cc2ccc(NC(=O)c3cccc4c(=O)c5cccc(C)c5[nH]c34)cc2)cc1OC	0.44
COc1cccc2cc(C(=O)N[C@@H](CC(C)C)C(=O)N[C@H](C=NN3CCOC3=O)CC(C)C)oc12	1.9
CC1(C)NC(N)=NC(=N)N1OCCCOc1ccc(N)cc1	-1.26
Cn1nc(C(F)(F)F)c(-c2ccc(Br)cc2)c1NC(=O)Cc1ccccc1F	-2.17
CCOC(=O)c1ccc(NC(=O)Nc2cccc(-c3ccc(-c4nc5cccc(C)c5[nH]4)s3)c2)cc1	2.18
CN(CC(=O)Nc1cc(C(F)(F)F)ccc1-n1cncn1)Cc1ccc2ccccc2c1	1.8

====

Collected inhibition values appear next to each entry.
Molecular target: Hexose transporter 1 (Plasmodium falciparum)
Assay: ST_JUDE_LEISH: Cytotoxicity at 2uM final concentration against transgenic Leishmania Mexicana promastigotes LmPfHT that are glucose transport deficient and complemented with the Plasmodium falciparum hexose transporter. Activity is measured by DNA content using SYBR green in vitro
Type: functional
Attribute measured: inhibition (%)

Molecule	Attribute measured	Unit abbreviation	Result value
CC(=O)Oc1c(C(=O)C2CCC(C(C)(C)C)CC2)c(OC(C)=O)c2ccccc2c1OC(C)=O (stereo not given)	inhibition	%	11.5
CN(CC(=O)Nc1cc(C(F)(F)F)ccc1-n1cncn1)Cc1ccc2ccccc2c1	inhibition	%	1.25
CCNc1cc(C(=O)N[C@@H](Cc2ccccc2)[C@H](O)CNCCCc2ccc(OC)cc2)cc(N2CCCC2=O)c1	inhibition	%	0.76
CCN(CC)C(=O)c1cccc(C=Cc2ccc(-c3c(C)[nH]c(C)c(Cl)c3=O)cc2)c1	inhibition	%	2.83
COc1ccc(Nc2ncc3c(-c4cccc(NC(=O)CC(C)C)c4)c[nH]c3n2)cc1OC	inhibition	%	8.48
O=C(Nc1ccc(Cl)cc1)N(CC1CC2CCC(C1)N2Cc1ccc(C(F)(F)F)cc1)c1ccc(N2CCOCC2)c(F)c1 (stereo not given)	inhibition	%	5.58
CCC(CSC1CCCCC1)N(C)CCN(C)C(CC)CSC1CCCCC1 (stereo not given)	inhibition	%	36.7
COc1ccc(C(=O)Nc2cc(Br)c3c(c2)CNCC3)cc1C(F)(F)F	inhibition	%	1.74
CCCCCCc1c(C)nc2cc(OC)ccc2c1O	inhibition	%	5.49
COc1cc(Cc2cnc(N)nc2N)cc(OCCCC#N)c1OC	inhibition	%	-1.21
Cc1sc(C)c(CNCCCNc2cc(=O)c3ccccc3[nH]2)c1Br	inhibition	%	2
Cc1ccn2c(C(=O)N3CCN(c4cccc5c4nc(-c4ccoc4)n5Cc4ccccn4)CC3)c(C)nc2c1	inhibition	%	1.01
Oc1cccc(Nc2ccnc3cc(-c4ccncc4)ccc23)c1	inhibition	%	9.58
O=C(Nc1nc(-c2ccccn2)cs1)c1ccc(S(=O)(=O)N2CCc3ccccc32)cc1	inhibition	%	15.1
O=C(c1cc(-c2ccccc2)n[nH]1)N1CCN(S(=O)(=O)c2ccc(Cl)s2)CC1	inhibition	%	1.3
O=C(NC1CCN(Cc2ccccc2O)C1)c1cccc(C(F)(F)F)c1 (stereo not given)	inhibition	%	0.49
CC1(C)NC(N)=NC(=N)N1OCc1cccc(Cl)c1Cl	inhibition	%	3.75
COc1ccc(Cl)c(CC2c3cc(O)c(Cl)cc3CCN2C)c1 (stereo not given)	inhibition	%	-0.87
CCCCCCN1CCCN(Cc2ccc(C(=O)Nc3cccc(CC)c3)cc2)CC1	inhibition	%	3.36
Clc1cccc(-c2nc(Nc3ccnc(-c4ccc(CN5CCOCC5)cc4)c3)c3ccccc3n2)c1	inhibition	%	3.91
